// provenance: the supplement of paper PMC10307832

system: NCI-H1355; assay: relative viability (nuclei count vs DMSO), 5 days (fraction); higher = more cells survive; conditions: first compound 4 µM
Measured relative viability of individual entries
When you answer, write just the number.

compound="Clc1ccc(Nc2nnc(Cc3ccncc3)c3ccccc23)cc1 [Vatalanib] + CC1(C)CCC(c2ccc(Cl)cc2)=C(CN2CCN(c3ccc(C(=O)NS(=O)(=O)c4ccc(N[C@H](CCN5CCOCC5)CSc5ccccc5)c(S(=O)(=O)C(F)(F)F)c4)cc3)CC2)C1 [Navitoclax] (partner 0.5 µM)" system=NCI-H1355 endpoint="relative viability" reported_value=0.917
compound="C[C@@H]1CN(CC(=O)Nc2ccc3c(c2)Cc2cccc(-c4cc(=O)cc(N5CCOCC5)o4)c2S3)C[C@H](C)O1 + Cc1nc(Nc2ncc(C(=O)Nc3c(C)cccc3Cl)s2)cc(N2CCN(CCO)CC2)n1 [Dasatinib] (partner 0.075 µM)" system=NCI-H1355 endpoint="relative viability" reported_value=0.646

Exam item: Dear colleague, I am looking for the recorded relative viability of the following compound: COc1cc(N2CCC(C(N)=O)CC2)ccc1Nc1nc(N)c(Cl)c(Nc2ccccc2S(=O)(=O)C(C)C)n1 [HG-5-88-01] + O=C(CCCCCCC(=O)Nc1ccccc1)NO [Vorinostat] (partner 1 µM)
Marked response: 0.399

Exam item: Dear colleague, I am looking for the recorded relative viability of the following compound: COc1cc(N2CCC(C(N)=O)CC2)ccc1Nc1nc(N)c(Cl)c(Nc2ccccc2S(=O)(=O)C(C)C)n1 [HG-5-88-01] + C[C@]1(O)C[C@@H](c2nc(-c3ccc4ccc(-c5ccccc5)nc4c3)c3c(N)nccn32)C1 [Linsitinib] (partner 1 µM)
Marked response: 0.767
